The measured values listed here are drawn from patent US20250197409A1.

- TEST TARGET: androgen receptor (Homo sapiens, UniProt P10275, T878A)
- Construct: host or cells: LNCaP.FGC
- Sequence (P10275 whole entry T878A): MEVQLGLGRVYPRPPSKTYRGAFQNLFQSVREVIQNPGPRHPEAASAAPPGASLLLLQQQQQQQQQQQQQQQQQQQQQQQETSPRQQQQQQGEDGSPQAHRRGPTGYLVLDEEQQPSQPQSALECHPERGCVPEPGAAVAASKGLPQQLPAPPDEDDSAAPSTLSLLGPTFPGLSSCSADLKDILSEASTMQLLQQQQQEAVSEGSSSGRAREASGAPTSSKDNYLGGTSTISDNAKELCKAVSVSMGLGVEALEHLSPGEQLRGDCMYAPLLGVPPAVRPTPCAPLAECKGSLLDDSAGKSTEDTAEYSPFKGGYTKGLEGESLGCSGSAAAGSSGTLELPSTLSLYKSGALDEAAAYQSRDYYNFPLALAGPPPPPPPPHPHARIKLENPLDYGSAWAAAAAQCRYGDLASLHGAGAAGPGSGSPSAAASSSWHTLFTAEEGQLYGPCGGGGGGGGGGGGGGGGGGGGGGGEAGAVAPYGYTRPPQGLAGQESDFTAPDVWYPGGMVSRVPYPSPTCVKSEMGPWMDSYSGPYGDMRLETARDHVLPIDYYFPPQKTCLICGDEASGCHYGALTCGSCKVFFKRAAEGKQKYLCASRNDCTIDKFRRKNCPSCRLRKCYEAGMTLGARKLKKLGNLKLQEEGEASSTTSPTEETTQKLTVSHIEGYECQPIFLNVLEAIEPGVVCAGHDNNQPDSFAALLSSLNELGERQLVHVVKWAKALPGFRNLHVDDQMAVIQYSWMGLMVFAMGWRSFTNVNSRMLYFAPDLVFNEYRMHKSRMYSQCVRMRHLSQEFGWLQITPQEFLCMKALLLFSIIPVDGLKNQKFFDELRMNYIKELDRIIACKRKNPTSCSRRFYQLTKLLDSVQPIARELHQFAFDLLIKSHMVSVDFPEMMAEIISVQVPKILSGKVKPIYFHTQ
- Sequence (Q96SW2 whole entry partner): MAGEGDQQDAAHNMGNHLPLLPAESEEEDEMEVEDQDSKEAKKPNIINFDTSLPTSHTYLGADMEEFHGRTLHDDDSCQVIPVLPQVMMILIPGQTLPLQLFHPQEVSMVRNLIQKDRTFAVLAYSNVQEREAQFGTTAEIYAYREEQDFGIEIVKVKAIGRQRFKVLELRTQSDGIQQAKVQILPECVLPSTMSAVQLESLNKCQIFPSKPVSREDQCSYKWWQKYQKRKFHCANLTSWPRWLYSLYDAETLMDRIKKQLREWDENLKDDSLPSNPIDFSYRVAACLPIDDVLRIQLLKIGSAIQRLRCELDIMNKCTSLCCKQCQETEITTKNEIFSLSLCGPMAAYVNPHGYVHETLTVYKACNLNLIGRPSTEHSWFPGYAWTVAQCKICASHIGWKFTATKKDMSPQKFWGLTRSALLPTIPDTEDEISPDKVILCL
- ASSAY EXPLANATION: Androgen receptor degradation assay using Western blot analysis
- Assay type: cell-based
- EXPERIMENTAL CONDITIONS: read-out: AR DC50 (concentration needed for 50% AR degradation); LNCaP.FGC cells, serial 10x dilutions from 100 nM
MEASURED PROPERTY: DC50

COMPOUND: CCn1c2c(c3ccc(OCCC4CCN(c5ccc(C(=O)N[C@H]6CC[C@H](N(C)c7ccc(C#N)c(Cl)c7)CC6)nn5)CC4)cc31)C(=O)N(C1CCC(=O)NC1=O)C2=O (some centres unmarked)
TEST TARGET: androgen receptor (Homo sapiens, UniProt P10275, T878A)
REPORTED: 25 to 100 nM

COMPOUND: CCn1c2c(c3ccc(OCCCCN4CCCN(c5ccc(C(=O)N[C@H]6CC[C@H](Oc7ccc(C#N)c(Cl)c7)CC6)nn5)CC4)cc31)C(=O)N(C1CCC(=O)NC1=O)C2=O (some centres unmarked)
TEST TARGET: androgen receptor (Homo sapiens, UniProt P10275, T878A)
REPORTED: 25 to 100 nM

COMPOUND: CCn1c2c(c3ccc(OCCCN4CCN(c5ccc(C(=O)N[C@H]6CC[C@H](Oc7ccc(C#N)c(Cl)c7)CC6)nn5)CC4)cc31)C(=O)N([C@H]1CCC(=O)NC1=O)C2=O
TEST TARGET: androgen receptor (Homo sapiens, UniProt P10275, T878A)
REPORTED: 10 to 25 nM

COMPOUND: CCn1c2c(c3ccc(OCCCN4CCC5(CC4)CCN(c4ccc(C(=O)N[C@H]6CC[C@H](N(C)c7ccc(C#N)c(Cl)c7)CC6)nn4)CC5)cc31)C(=O)N(C1CCC(=O)NC1=O)C2=O (some centres unmarked)
TEST TARGET: androgen receptor (Homo sapiens, UniProt P10275, T878A)
REPORTED: < 10 nM

Please examine the following record next.
Return value of DC50 for input CCn1c2c(c3ccc(OCCCCN4CCCN(c5ccc(C(=O)N[C@H]6CC[C@H](N(C)c7ccc(C#N)c(Cl)c7)CC6)nn5)CC4)cc31)C(=O)N(C1CCC(=O)NC1=O)C2=O (some centres unmarked) , no commentary.
10 to 25 nM
